Cited source for all entries: PubChem BioAssay (NCI)

test system: SF-268 CNS; assay: NCI tumour cell line growth inhibition, 48 h

molecule	TGI
O=C(N/N=C\c1ccccc1)Nc1cccc2ccccc12	> 100 µM
COc1ccccc1/C=C/C(=O)/C=C/c1ccccc1OC	4.57 µM
NC1(C(=O)O)CCCC1	> 370 µM
Cc1nnc(-n2c(O)cc(=O)n(-c3ccccc3)c2=S)nc1/C=C/c1ccc(N(C)C)cc1	> 53.8 µM
COc1ccc2c(c1)/C(=C/c1cc(OC)c(OC)c(OC)c1)C(=O)N2C	6.72 µM
CC(C)(C)c1ccc(C(C)(C)C)c(N2C(=O)C3ON=C(c4ccc([N+](=O)[O-])cc4)C3C2=O)c1 (stereo unspecified)	> 25 µM
N#Cc1ccc2c(c1)C(=O)c1c-2n(CCCN)c(=O)c2cc([N+](=O)[O-])ccc12	1.51 µM
CCc1nc2ccc(C(F)(F)F)cc2[nH]c1=O	> 100 µM
CC(C)C(=O)/C=C/c1ccc(Cl)c(Cl)c1	40.4 µM
Cc1ccc(C(=O)Nc2ccc(S(=O)(=O)O)c3cc(S(=O)(=O)O)cc(S(=O)(=O)O)c23)cc1NC(=O)c1cccc(NC(=O)Nc2cccc(C(=O)Nc3cc(C(=O)Nc4ccc(S(=O)(=O)O)c5cc(S(=O)(=O)O)cc(S(=O)(=O)O)c45)ccc3C)c2)c1 (tested in a mixture with another compound)	> 50 µM
c1ccc(-c2cc(-c3cccs3)c(-c3cccs3)o2)cc1	> 100 µM
